Test system: CAKI-1 renal
Assay Comment: NCI-60 one-dose screen, 48 h (100 = growth as untreated, 0 = no growth, -100 = all killed)
Condition Context: 10 µM unless noted
Description: Growth inhibition of the CAKI-1 human tumor cell line is measured as a screen for anti-cancer activity. Cells are grown in 96 well plates and exposed to the test compound for 48 hours. Compounds are tested at a single concentration, which is 10^-5 M for most compounds. The reported endpoint is percent growth (GI% or GIPRCNT), where numbers from 0 - 100% represent growth inhibition, and numbers from -100% - 0 represent cell death. For example, a value of 40 represents 60% growth inhibition. […]
About 83,000 compounds went through this panel and 20% of them were active in at least one assay; those are over-represented in the sample as a whole.
Readout: growth (%)
Numeric only. Scale: %

{"columns": ["Molecule", "Readout", "Number"],
 "data": [
  ["CC(=O)NCC1c2c(n(C)c3c(Cl)c(Cl)ccc23)C(=O)NC1(C)C (stereo not drawn)", "growth", 77.4],
  ["CC[C@]1(O)C[C@@H]2CN(CCc3c([nH]c4ccccc34)[C@@](C(=O)OC)(c3cc4c(cc3OC)N(C)[C@H]3[C@@](O)(C(N)=O)[C@H](O)[C@]5(CC)[C@@H]6C[C@@H]6CN6CC[C@]43[C@@H]65)C2)C1", "growth", 32.8]
]}

# query: growth of entry O=C1/C(=C/c2ccc3c(c2)OCO3)SC(=S)N1CCc1ccc(O)cc1
81

Field entry: O=C(Nc1ccc(Cl)cc1)c1cc2cc(F)ccc2cc1O
12

Repeat for the following molecule: CSc1ccc(-c2n[nH]nc2-c2cc3ccccc3s2)cc1
49.1

Now give it for COc1ccc2c(c1)c(-c1nonc1-c1cn(C)c3ccccc13)cn2C too.
30.1

And then CCn1c(Cc2ccccc2Nc2c(Cl)cccc2Cl)nnc1SCC(=O)NN1C(=O)/C(=C/c2cc(OC)c(O)c(OC)c2)SC1=S , what is it?
37

Now the same for O=C(/C=C/c1ccccc1)c1ccc(O)c(CN2CCN(c3cc4c(cc3F)c(=O)c(C(=O)O)cn4C3CC3)CC2)c1
20.6

---

Property: growth; scope: individual molecules
Test system: A498 renal
Assay Comment: NCI-60 one-dose screen, 48 h (100 = growth as untreated, 0 = no growth, -100 = all killed)
Condition Context: 10 µM unless noted
About 83,000 compounds went through this panel and 20% of them were active in at least one assay; those are over-represented in the sample as a whole.
Field: numeric (%). Do not append units.

Example entries begin here.
{"columns": ["Molecule", "Readout Units", "growth"],
 "data": [
  ["CCc1nc(N)nc(N)c1C#CC(C)c1ccc(-c2ccncc2)cc1Cl (stereo not given)", "%", 22.7],
  ["Cn1cccc1-c1nc2c3c(ccc2[nH]1)C(=O)c1ccccc1C3=O", "%", 88.7],
  ["O=C1/C(=C/N2N=C(c3ccc4ccccc4c3)CC2c2ccccc2O)SC(=S)N1c1cccnc1 (stereo not given)", "%", 14.3]
]}

Need growth of COc1cc(-c2nn(-c3ccc(C(=O)O)cc3)cc2C(=O)O)ccc1O , thanks.
97.9

Now this one: CCOc1cc2ncc(C#N)c(Nc3ccc(F)c(Cl)c3)c2cc1NC(=O)CC1CCSS1 (stereo not given)
-53.7

Next up: CCN(CC)S(=O)(=O)c1ccc(OC)c(NC(=O)c2[nH]c(C)c3c2CCCCC3=O)c1
15.1

And what about the molecule OC(COc1cccc2ccccc12)CN1CCN(c2ccccc2Cl)CC1 (stereo not given) ?
90
